Origin of values: ChEMBL document CHEMBL4715930

assayed system: Tumour suppressor p53/oncoprotein Mdm2 (Homo sapiens)
Sequence (P04637 whole entry, the tested form may be a part): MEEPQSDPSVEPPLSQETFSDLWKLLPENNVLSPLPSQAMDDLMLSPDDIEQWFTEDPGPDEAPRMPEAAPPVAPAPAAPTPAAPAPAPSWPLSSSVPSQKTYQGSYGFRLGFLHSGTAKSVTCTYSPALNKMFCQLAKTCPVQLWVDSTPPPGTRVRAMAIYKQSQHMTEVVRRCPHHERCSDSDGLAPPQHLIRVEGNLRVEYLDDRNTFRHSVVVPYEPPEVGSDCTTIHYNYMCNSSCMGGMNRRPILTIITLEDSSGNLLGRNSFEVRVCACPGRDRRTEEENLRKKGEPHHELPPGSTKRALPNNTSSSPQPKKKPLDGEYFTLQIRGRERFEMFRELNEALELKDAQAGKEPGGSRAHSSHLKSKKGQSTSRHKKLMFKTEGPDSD
Sequence (Q00987 whole entry, the tested form may be a part): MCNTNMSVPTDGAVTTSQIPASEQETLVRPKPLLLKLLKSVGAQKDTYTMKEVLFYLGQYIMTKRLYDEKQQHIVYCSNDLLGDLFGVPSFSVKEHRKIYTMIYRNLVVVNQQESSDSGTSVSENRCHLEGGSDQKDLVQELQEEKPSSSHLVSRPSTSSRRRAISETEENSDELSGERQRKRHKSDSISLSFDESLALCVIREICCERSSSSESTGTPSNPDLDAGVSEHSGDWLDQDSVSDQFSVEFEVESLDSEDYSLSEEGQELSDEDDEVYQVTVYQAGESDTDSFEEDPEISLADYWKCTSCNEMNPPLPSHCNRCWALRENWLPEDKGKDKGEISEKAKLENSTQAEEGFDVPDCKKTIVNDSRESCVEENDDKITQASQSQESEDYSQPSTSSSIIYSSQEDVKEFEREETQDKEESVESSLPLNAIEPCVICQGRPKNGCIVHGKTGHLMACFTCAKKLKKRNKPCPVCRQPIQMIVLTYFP
experiment summary: Inhibition of GST-tagged MDM2 (23 to 117 residues) (unknown origin) assessed as inhibition of MDM2/biotinylated wild type human p53 (16 to 27 residues) interaction by measuring reactivation of p53 incubated for 15 mins by AlphaScreen assay
quantity name: IC50 (nM)
Express the result in nM but write the number alone.

Answered cases to consult:
smiles: O=C(O)c1ccc2c(c1)nc1n2CC[C@@H]2[C@H]1[C@H](c1cccc(Cl)c1F)[C@]1(C(=O)Nc3cc(Cl)ccc31)N2CC1CC1
IC50 [nM]: 79
//
smiles: Cc1c(C(=O)N2CCCCC2)ccn2c3c(nc12)[C@@H]1[C@H](CC3)N(CC2CC2)[C@@]2(C(=O)Nc3cc(Cl)ccc32)[C@H]1c1ccnc(Cl)c1F
IC50 [nM]: 10

Turning now to a further record.
INPUT: Field request: IC50 | item: CCOc1cccc(CN2[C@H]3Cc4c5cc(C)c(C(=O)NC)cc5nn4[C@H]3[C@H](c3cccc(Cl)c3F)[C@]23C(=O)Nc2nc(Cl)ccc23)c1
OUTPUT: 5
